Molecular target: human orexin 2 receptor (Homo sapiens, UniProt O43614)
Sequence (O43614 whole entry): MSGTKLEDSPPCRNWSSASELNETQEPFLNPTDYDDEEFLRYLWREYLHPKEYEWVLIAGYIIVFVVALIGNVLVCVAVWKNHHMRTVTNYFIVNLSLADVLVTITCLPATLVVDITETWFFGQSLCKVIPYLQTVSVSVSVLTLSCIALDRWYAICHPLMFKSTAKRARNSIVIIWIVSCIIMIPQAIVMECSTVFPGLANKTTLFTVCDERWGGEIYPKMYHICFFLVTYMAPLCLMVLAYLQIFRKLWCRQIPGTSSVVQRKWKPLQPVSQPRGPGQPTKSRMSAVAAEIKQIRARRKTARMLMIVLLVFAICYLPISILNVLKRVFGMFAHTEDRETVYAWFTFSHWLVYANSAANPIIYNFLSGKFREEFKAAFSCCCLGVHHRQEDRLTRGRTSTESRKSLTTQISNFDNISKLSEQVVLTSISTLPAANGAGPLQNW
Test: Calcium accumulation in cells (FLIPR), antagonism of orexin A, human orexin 2 receptor
Conditions: calcium accumulation, antagonism of orexin A, Cheng-Prusoff corrected; read-out: FLIPR hOx2R Ki
Cut-off 100 nM on Ki: below means rule met, at or above means rule not met.

Take a look at these entries with their results.
| compound | labelClass |
| --- | --- |
| Cc1cc(C)nc(N2CCC3(CCN(Cc4nn(C)nc4-c4ccccc4)C3=O)CC2)n1 | rule not met |
| Cc1cc(C)nc(N2CCC3(CC2)OCCN(Cc2n[nH]c4ccccc24)C3=O)n1 | rule met |
| COc1ccnc(N2CCC3(CCCN(Cc4n[nH]c5ccccc45)C3=O)C2)n1 (centres unmarked) | rule not met |

Quick check: Ki of "Cc1cc(C)nc(N2CCC3(CCN(Cc4ccccc4-c4nc(C)no4)C3=O)CC2)n1" under 100 nM? rule not met

Quick check: Ki of COc1cccc(-c2nn(C)nc2CN2CCCC3(CCN(c4nccc(OC)n4)C3)C2=O)c1 (centres unmarked) under 100 nM? rule not met

Quick check: Ki of "O=C1N(Cc2cccc3ccccc23)CCC12CCN(c1cnc3ccccc3n1)CC2" under 100 nM? rule not met

Quick check: Ki of "N#Cc1ccnc(N2CCC3(CCN(Cc4c[nH]c5ccccc45)C3=O)CC2)c1" under 100 nM? rule not met

Quick check: Ki of "Cc1cc(C)nc(N2CCC3(CC2)NCCN(Cc2nn(C)cc2-c2cccc(C(F)(F)F)c2)C3=O)n1" under 100 nM? rule met

Quick check: Ki of "Cc1cc(C)nc(N2CCC3(CC2)OCCN(Cc2nocc2-c2ccccc2)C3=O)n1" under 100 nM? rule not met

Quick check: Ki of "O=C1N(Cc2ccccc2-c2ccccc2)CCC12CCN(c1nc3ccccc3[nH]1)CC2" under 100 nM? rule not met

Quick check: Ki of "O=C1OCC2(CCN(c3cnc4ccccc4n3)CC2)N1Cc1cccc2[nH]ccc12" under 100 nM? rule met

* * *

Target: human orexin 1 receptor (Homo sapiens, UniProt O43613)
Construct: expressed in transfected cells
Test: Calcium accumulation in cells (FLIPR), antagonism of orexin A, human orexin 1 receptor
Type: cell-based
Details: measured at a concentration of 10 μM of compound; read-out: FLIPR hOx1R % inhibition
Experimental: Calcium Accumulation in Cells (FLIPR): Cells expressing human orexin 1 or human orexin 2 receptors, were seeded at 8,000 cells/well in 384 well black-walled clear bottom, poly-D-lysine coated plates. […] On the day of the experiment, the cells seeded in black plates were treated with assay buffer containing the Ca^2+ sensitive fluorescent dye Fluo-4-AM (2 μM), and probenecid (0.1 mM). […] Fluorescence measurements were then continued every 1 S for 120 S followed by every 4 S for 240 S. […]
valueKind: inhibition at 10 µM (%)
Field: numeric (%). Do not append units.

Guide cases for inhibition at 10 µM, answers given:
| compound | experimentalResult |
| --- | --- |
| Cc1cc(C)nc(N2CCC3(CCN(Cc4nn(C)nc4-c4ccccc4)C3=O)CC2)n1 | 25 |
| O=C1N(Cc2c[nH]c3ccccc23)CCC12CCN(c1nc3cc(Cl)ccc3o1)C2 (stereo not shown) | 29 |
| Cc1cccc(-c2cn(C)nc2CN2CCNC3(CCN(c4nc(C)cc(C)n4)CC3)C2=O)c1 | 29 |

Now turn to the next compound.
Form field: reported inhibition at 10 µM of "Cc1ccnc(N2CCC3(CC2)NCCN(Cc2c[nH]c4ccccc24)C3=O)n1" 26

* * *

Molecular target: human orexin 2 receptor (Homo sapiens, UniProt O43614)
Construct: expressed in transfected cells
Assay: Calcium accumulation in cells (FLIPR), antagonism of orexin A, human orexin 2 receptor
Type: cell-based
Settings: calcium accumulation, antagonism of orexin A, Cheng-Prusoff corrected; read-out: FLIPR hOx2R Ki
valueKind: pKi
Please keep in mind that pKi is minus log10 of the molar concentration; only the number is needed.

| compound | targetEntity | experimentalResult |
| --- | --- | --- |
| Cc1cc(C)nc(N2CCC3(CC2)OCCN(Cc2ccccc2-c2nc(C)no2)C3=O)n1 | human orexin 2 receptor (Homo sapiens, UniProt O43614) | 7.14 |

Now turn to the next compound.
Form field: reported pKi of "Cc1cc(C)nc(N2CCC3(CC2)OCCN(Cc2conc2-c2ccccc2)C3=O)n1" 6.83

* * *

Target: human orexin 1 receptor (Homo sapiens)
Construct: expressed in transfected cells
Sequence (O43613 1-425): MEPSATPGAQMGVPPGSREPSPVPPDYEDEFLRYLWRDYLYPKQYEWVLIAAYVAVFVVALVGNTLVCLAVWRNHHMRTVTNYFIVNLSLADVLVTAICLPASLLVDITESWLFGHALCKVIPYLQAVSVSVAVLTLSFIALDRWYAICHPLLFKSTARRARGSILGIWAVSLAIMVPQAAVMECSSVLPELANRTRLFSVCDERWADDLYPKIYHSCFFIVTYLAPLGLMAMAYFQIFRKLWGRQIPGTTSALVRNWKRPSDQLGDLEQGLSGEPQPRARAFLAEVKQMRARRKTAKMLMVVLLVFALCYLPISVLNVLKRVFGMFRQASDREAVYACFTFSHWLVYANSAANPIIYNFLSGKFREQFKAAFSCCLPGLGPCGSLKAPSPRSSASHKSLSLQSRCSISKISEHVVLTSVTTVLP
Assay: Calcium accumulation in cells (FLIPR), antagonism of orexin A, human orexin 1 receptor
Format: cell-based
Conditions: measured at a concentration of 10 μM of compound; read-out: FLIPR hOx1R % inhibition
valueKind: inhibition at 10 µM (%)
Field: numeric (%). Do not append units.

| mol | measurementUnits | experimentalResult |
| --- | --- | --- |
| Cc1cc(C)nc(N2CCC3(CC2)OCCN(Cc2ccccc2-c2nc(C)no2)C3=O)n1 | % | 35 |

Observed inhibition at 10 µM on human orexin 1 receptor (Homo sapiens) for "N#Cc1ccnc(N2CCC3(CCC(=O)N3Cc3cccc4[nH]ccc34)CC2)c1" , please. 36

Observed inhibition at 10 µM on human orexin 1 receptor (Homo sapiens) for "COc1cccc(-c2sc(C)nc2CN2CCNC3(CCN(c4nc(C)cc(C#N)n4)CC3)C2=O)c1" , please. 31

Observed inhibition at 10 µM on human orexin 1 receptor (Homo sapiens) for "Cc1cc(C)nc(N2CCC3(CC2)NCCN(Cc2nn(C)cc2-c2cccc(-c4nnc(C)o4)c2)C3=O)n1" , please. 37

* * *

Target: UniProt O43614
Test: Calcium accumulation in cells (FLIPR), antagonism of orexin A, human orexin 2 receptor
Details: calcium accumulation, antagonism of orexin A, Cheng-Prusoff corrected; read-out: FLIPR hOx2R Ki
valueKind: Ki (nM)
Field: numeric (nM). Do not append units.

Guide cases for Ki, answers given:
| molecule | targetEntity | measurementUnits | Ki |
| --- | --- | --- | --- |
| COc1cccc(-c2oc(C)nc2CN2CCNC3(CCN(c4nccc(OC)n4)CC3)C2=O)c1 [Example 1.17] | UniProt O43614 | nM | 92 |
| COc1cccc(-c2sc(C)nc2CN2CCNC3(CCN(c4nc(C)cc(C#N)n4)CC3)C2=O)c1 [Example 1.25] | UniProt O43614 | nM | 76 |

Now turn to the next molecule.
Form field: reported Ki of COc1cccc(-c2n[nH]nc2CN2CCC3(CCN(c4nccc(OC)n4)C3)C2=O)c1 (stereo not drawn) [Example 5.14] 146
